I'd be grateful if you could share measured MIC for these entries.
- Test system: M. tuberculosis H37Rv poly-g-GFP
- run description: microbe, parasite or virus in culture
- Format: cell-based
- test context: Mycobacterium tuberculosis, 336 h, read-out: MIC Mtb H37Rv-poly-g-GFP, turbidity read-out

-- ask Recorded MIC for CC[C@H]1/C=C(\C)[C@@H](O)C/C=C/C=C(\CNc2nc(COc3ccccc3)cs2)C(=O)O[C@H]([C@@H](C)O)C/C=C(C)/C=C(\C)[C@@H]1O[C@@H]1OC(C)(C)[C@@H](OC(=O)C(C)C)[C@H](O)[C@@H]1O with M. tuberculosis H37Rv poly-g-GFP, please?
-- reply 4 to 8 µg/mL

-- ask // next record CC[C@H]1/C=C(\C)[C@@H](O)C/C=C/C=C(\CNc2nc(-c3ccccc3)cs2)C(=O)O[C@H]([C@@H](C)O)C/C=C(C)/C=C(\C)[C@@H]1O[C@@H]1OC(C)(C)[C@@H](OC(=O)C(C)C)[C@H](O)[C@@H]1O
-- reply 8 to 16 µg/mL

-- ask // next record CC[C@H]1/C=C(\C)[C@@H](O)C/C=C/C=C(\CNc2nc3ccccc3s2)C(=O)O[C@H]([C@@H](C)O)C/C=C(C)/C=C(\C)[C@@H]1O[C@@H]1OC(C)(C)[C@@H](OC(=O)C(C)C)[C@H](O)[C@@H]1O
-- reply 4 to 8 µg/mL

* * *

- System: M. tuberculosis H37Rv poly-g-GFP
- run description: microbe, parasite or virus in culture
- Format: cell-based
- test context: Mycobacterium tuberculosis, H37RV, 240 h, read-out: IC90 Mtb H37Rv-poly-g-GFP, fluorescence read-out
measure name: IC90 (µg/mL)
# number only, unit µg/mL dropped from output

-- ask Recorded IC90 for CC[C@H]1/C=C(\C)[C@@H](O)C/C=C/C=C(\CN(C)Cc2nnc(-c3ccccc3)o2)C(=O)O[C@H]([C@@H](C)O)C/C=C(C)/C=C(\C)[C@@H]1O[C@@H]1OC(C)(C)[C@@H](OC(=O)C(C)C)[C@H](O)[C@@H]1O with M. tuberculosis H37Rv poly-g-GFP, please?
-- reply 8

-- ask // next record CC[C@H]1/C=C(\C)[C@@H](O)C/C=C/C=C(\CNc2nc(-c3ccccc3)cs2)C(=O)O[C@H]([C@@H](C)O)C/C=C(C)/C=C(\C)[C@@H]1O[C@@H]1OC(C)(C)[C@@H](OC(=O)C(C)C)[C@H](O)[C@@H]1O
-- reply 8

-- ask // next record CC[C@H]1/C=C(\C)[C@@H](O)C/C=C/C=C(\CNc2nc3ccccc3s2)C(=O)O[C@H]([C@@H](C)O)C/C=C(C)/C=C(\C)[C@@H]1O[C@@H]1OC(C)(C)[C@@H](OC(=O)C(C)C)[C@H](O)[C@@H]1O
-- reply 8
